Biological target: human ether-à-go-go-related gene (hERG) potassium channel (human);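 note: peak tail current of the secondary pulse compared with the same well before compound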
Sequence (Q12809 whole entry, looked up): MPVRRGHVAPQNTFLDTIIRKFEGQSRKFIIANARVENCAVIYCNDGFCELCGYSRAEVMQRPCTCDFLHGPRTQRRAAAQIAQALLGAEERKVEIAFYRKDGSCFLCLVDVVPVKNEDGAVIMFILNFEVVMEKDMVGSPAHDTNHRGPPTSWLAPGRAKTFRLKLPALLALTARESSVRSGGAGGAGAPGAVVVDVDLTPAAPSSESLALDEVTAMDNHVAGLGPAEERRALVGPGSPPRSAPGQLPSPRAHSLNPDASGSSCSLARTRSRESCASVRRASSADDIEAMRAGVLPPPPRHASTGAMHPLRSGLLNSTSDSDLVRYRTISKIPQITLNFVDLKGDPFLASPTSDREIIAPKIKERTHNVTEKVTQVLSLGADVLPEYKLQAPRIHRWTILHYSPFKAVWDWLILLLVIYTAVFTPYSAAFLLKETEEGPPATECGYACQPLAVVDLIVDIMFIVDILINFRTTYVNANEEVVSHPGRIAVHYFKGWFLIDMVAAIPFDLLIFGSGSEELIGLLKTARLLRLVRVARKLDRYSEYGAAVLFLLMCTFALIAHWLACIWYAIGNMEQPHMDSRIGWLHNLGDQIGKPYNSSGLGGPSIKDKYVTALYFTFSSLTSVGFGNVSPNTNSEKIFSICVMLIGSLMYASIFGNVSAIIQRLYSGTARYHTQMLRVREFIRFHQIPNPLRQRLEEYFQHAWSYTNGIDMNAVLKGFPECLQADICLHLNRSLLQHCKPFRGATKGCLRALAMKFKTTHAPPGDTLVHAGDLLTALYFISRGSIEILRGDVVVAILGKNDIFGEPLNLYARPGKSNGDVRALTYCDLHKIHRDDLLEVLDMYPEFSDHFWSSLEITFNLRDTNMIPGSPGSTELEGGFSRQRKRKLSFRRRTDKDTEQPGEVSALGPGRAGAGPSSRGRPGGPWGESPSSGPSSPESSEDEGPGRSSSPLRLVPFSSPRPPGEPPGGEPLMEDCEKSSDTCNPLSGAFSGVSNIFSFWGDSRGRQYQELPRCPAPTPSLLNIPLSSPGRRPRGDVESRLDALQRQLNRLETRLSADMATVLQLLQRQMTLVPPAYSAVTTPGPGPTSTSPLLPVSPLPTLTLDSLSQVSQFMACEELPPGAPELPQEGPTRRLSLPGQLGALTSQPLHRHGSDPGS
Test: primary screen, population patch clamp on CHO cells stably expressing hERG; higher = less effect of the substance
The whole screen tested about 310,000 compounds, of which about 14,000 (4.5%) showed an effect of 50% or more. The effect is printed as a negative number. What follows is part of a selection rich in strong results, with near analogues and random picks from the rest.
VALUE KIND: hERG current change (%, negative = inhibition) at 10uM (%)

| COMPOUND | RESULT NUMBER |
| --- | --- |
| COc1ccc(C(CNC(=O)c2cccc(S(=O)(=O)NCc3ccccc3)c2)N(C)C)cc1 (stereo not shown) | -24.3 |
| O=C(NCCCN1CCOCC1)c1ccc(Br)cc1 | -13.7 |
| COC(=O)CN1C(=S)N(C)C(=O)/C1=C/c1cccs1 | 5.21 |
| O=C(NCCN1CCN(C(=O)c2ccc(F)cc2)CC1)c1ccc(F)cc1 | -70.1 |
| O=C(Nc1ccc(F)cc1F)N1CCN(c2ncccn2)CC1 | -8.77 |
| Cc1ccc(N)cc1CN1CCCC1=O | 2.15 |
| Cc1cc(C)n(Cc2ccc(Cl)cc2Cl)c(=O)c1S(=O)(=O)c1ccccc1 | 14.7 |
| CCOc1ccc(NC(=S)NN2C(C)CCCC2C)cc1 (stereo not shown) | 6.62 |
| Cc1cc(N2CCN(C(=O)Nc3ccc(F)cc3F)CC2)c2ccccc2n1 | -72.2 |
| COc1ccc(C(=O)NCCN2CCN(C(=O)c3ccc(OC)cc3)CC2)cc1 | -75.2 |
| CCOC(=O)c1c(S(=O)(=O)N2CCCC(C(=O)Nc3ccc(C)cn3)C2)c(C)n(C)c1C (stereo not shown) | 19.7 |
| C/C(=N\NC(=O)Cc1ccc(Cl)c(Cl)c1)c1cccnc1 | -12.9 |
| COc1ccccc1N1CCN(C(=O)Nc2cccc(Cl)c2)CC1 | -28.2 |
| Cc1cc(N2CCN(CC(O)C(F)(F)F)CC2)c2ccccc2n1 (stereo not shown) | -40.7 |
| Cc1cc(N2CCN(C(=O)/C=C/C(=O)O)CC2)c2ccccc2n1 | 32.4 |
| O=C(CN(C(=O)C1CSC(=O)C1)c1cccc(F)c1)NCc1ccc2c(c1)OCO2 (stereo not shown) | -14.7 |
| Cc1ccc(C(=O)NNC(=O)CCN2C(=O)C3CCCCC3C2=O)cc1 (stereo not shown) | -5.88 |
| CCC1CCCCN1C(=O)c1ccc(OC2CCN(C(=O)COC)CC2)cc1 (stereo not shown) | 6.08 |
| CC(NS(=O)(=O)c1ccc(CCC(=O)NCc2cccnc2)cc1)c1ccccc1 (stereo not shown) | -1.35 |
| O=C(c1ccc(CS(=O)Cc2cccc(Cl)c2)o1)N1CCN(C2CCCCC2)CC1 (stereo not shown) | -16.5 |
| O=C(NCCNC(=O)c1ccc(F)cc1)c1ccc(F)cc1 | 0.397 |
| CC1CC(NS(=O)(=O)c2cc3c4c(c2)CCN4C(=O)CC3)CC(C)(C)C1 (stereo not shown) | -63.1 |
| CCN1CCCC1CNCC(O)COc1ccc(C(C)(C)C)cc1C.O=C(O)C(=O)O (stereo not shown) | -54.4 |
| CCOP(=O)(OCC)C(NS(=O)(=O)c1ccccc1)C(Cl)(Cl)Cl (stereo not shown) | 11.9 |
| Cl.O=C(NCCN1CCCC1)c1ccc(Br)cc1 | -11.9 |
